From: patent EP4763837A1

Experiment: Solubility of photochromic compound in polymerizable compounds
Type: physicochemical
Parameters: key: 1: No haze is seen when checked under transmission of light, and the sample is completely dissolved.; 2: A very thin haze is seen to the extent that it can be seen under transmission of light.; 3: A thin haze that can be seen under transmission of light is seen.; 4: A haze can be seen even without transmission of light
Details: 35 µmol/g in radical polymerizable compound composition of Example 21, 65 to 70°C, stirring and ultrasonic irradiation
Experimental: The photochromic compounds according to Examples and Comparative examples shown in Table 5 were evaluated for solubility in polymerizable compounds. […] Dissolution was checked every 15 minutes up to 1 hour later, the sample was visually checked by transmitting light through the sample, and a degree of dissolution was evaluated according to the following four evaluation criteria. […]
quantity.name: Dissolution for 45 min
The response must contain the number and no unit.

Problem: Reported Dissolution for 45 min for CCC1(OCCOCCO[Si](C)(C)CC[Si](O[Si](C)(C)C)(O[Si](C)(C)C)O[Si](C)(C)C)c2ccccc2-c2c1c1c(c3cc(OC)c(N4CCOCC4)cc23)OC(c2ccc(OC)cc2)(c2ccc(OC)cc2)C=C1 (centres unmarked) [Formula (C), reference compound] : what is it?
Result: 1

Problem: Item CCCCC1(C(C)CC)c2ccccc2-c2c1c1c(c3cc(OC)c(N4CCOCC4)cc23)OC(c2ccc(OC)cc2)(c2ccc(OC)cc2)C=C1 (centres unmarked) [Formula (20-1)] has what recorded Dissolution for 45 min?
Result: 1

Problem: Consider the compound CCC1(C)c2cc(OC)ccc2-c2c1c1c(c3cc(OC)c(Sc4c(C)cccc4C)cc23)OC(c2ccc(OC)cc2)(c2ccc(N3CCOCC3)cc2)C=C1 (centres unmarked) [Formula (74-2)] and give its measured Dissolution for 45 min.
Result: 2

Problem: I have this compound here, CCCCCCC1(CC)c2ccccc2-c2c1c1c(c3cc(OC)c(N4CCOCC4)cc23)OC(c2ccc(OC)cc2)(c2ccc(OC)cc2)C=C1 (centres unmarked) [Formula (18-1)] , and I need its recorded Dissolution for 45 min.
Result: 1

Problem: Which Dissolution for 45 min is reported for this compound? COc1ccc(C2(c3ccc(OC)cc3)C=Cc3c4c(c5cc(N6CCOCC6)c(OC)cc5c3O2)-c2ccccc2C42CCCCCCC2)cc1 [Formula (D), reference compound]
Result: 2
